- Experiment summary: Inhibition of HDLP
pKi: −log10 of the molar value.
Value kind: pKi

Take a look at these entries with their results.
INSERT INTO measurements (chem_smiles, recorded_value) VALUES
  ('CC[C@@H]1NC(=O)[C@H](CCCCCC(=O)[C@H](C)O)NC(=O)[C@H]2CCCN2C(=O)[C@H](Cc2ccccc2)NC1=O', 6.96),
  ('C[C@H](O)C(=O)CCCCC[C@@H]1NC(=O)[C@H]2CCCN2C(=O)[C@H](Cc2ccccc2)NC(=O)C(C)(C)NC1=O', 6.71);

I. C[C@@H](O)C(=O)CCCCC[C@@H]1NC(=O)[C@H]2CCCN2C(=O)[C@H](Cc2ccccc2)NC(=O)[C@H](Cc2ccccc2)NC1=O
II. CC[C@]1(C)NC(=O)[C@H](CCCCCC(=O)[C@@H](C)O)NC(=O)[C@H]2CC(C)(C)CN2C(=O)[C@H](Cc2ccccc2)NC1=O
III. C[C@@H](O)C(=O)CCCCC[C@@H]1NC(=O)[C@H]2CCCN2C(=O)[C@H](Cc2ccccc2)NC(=O)[C@H](Cc2c[nH]c3ccccc23)NC1=O
IV. C[C@@H](O)C(=O)CCCCC[C@@H]1NC(=O)[C@@H]2CCCN2C(=O)[C@H](Cc2ccccc2)NC(=O)[C@H](Cc2c[nH]c3ccccc23)NC1=O
Request: Kindly order the items shown according to pKi, from the highest value down. Thanks in advance for listing the labels in the requested order.
Result: III, IV, I, II
(III: 9.01, IV: 8.11, I: 7.43, II: 7.22)

a. CC[C@@H]1NC(=O)[C@H](CCCCCC(=O)[C@H](C)O)NC(=O)[C@@H]2CCCN2C(=O)[C@H](Cc2ccccc2)NC1=O
b. C[C@H](O)C(=O)CCCCC[C@@H]1NC(=O)[C@H]2CCCN2C(=O)[C@H](Cc2ccccc2)NC(=O)C2(CCCCC2)NC1=O
c. C[C@@H](O)C(=O)CCCCC[C@@H]1NC(=O)[C@@H]2CCCN2C(=O)[C@H](Cc2ccccc2)NC(=O)C(C)(C)NC1=O
d. C[C@H](O)C(=O)CCCCC[C@@H]1NC(=O)[C@@H]2CCCN2C(=O)[C@H](Cc2ccccc2)NC(=O)C2(CCCCC2)NC1=O
Request: Which order do these items take when sorted by rising pKi? List them. Thanks in advance for listing the labels in the requested order.
Result: a, b, c, d

I. CC[C@]1(C)NC(=O)[C@H](CCCCCC(=O)[C@@H](C)O)NC(=O)[C@@H]2CC(C)(C)CN2C(=O)[C@H](Cc2ccccc2)NC1=O
II. C[C@H](O)C(=O)CCCCC[C@@H]1NC(=O)[C@@H]2CCCN2C(=O)[C@H](Cc2ccccc2)NC(=O)[C@H](Cc2cnc[nH]2)NC1=O
Request: // which entry has the larger pKi value, I or II ? Reply with the label of the item you choose.
Result: II
(II: 7.70, I: 7.34)

a. C[C@H](O)C(=O)CCCCC[C@@H]1NC(=O)[C@H]2CCCN2C(=O)[C@H](Cc2ccccc2)NC(=O)[C@H](Cc2cnc[nH]2)NC1=O
b. C[C@H](O)C(=O)CCCCC[C@@H]1NC(=O)[C@H]2CCCN2C(=O)[C@H](Cc2ccccc2)NC(=O)[C@H](Cc2ccc(Cl)cc2)NC1=O
Request: // which entry has the larger pKi value, a or b ? Reply with the label of the item you choose.
Result: a
